IC50 values by entry
tested on: A431 cell carrying EGFR WT; assay: Cell proliferation inhibitory activity assay, A431; type: cell-based; conditions: Homo sapiens, A-431; cell proliferation inhibition, 72 hours, luminescence
Write down the numeric answer in nM and omit the unit.

Worked set:
Short answer for Cc1cc2cc(n1)-c1cnccc1OCCC[C@@H](C)Cn1c(nc3cc(F)c(N4CCC5(CC4)CCN(C4COC4)CC5)cc31)NC2=O : IC50 was 403

Looking up Cc1cc2cc(n1)-c1cnccc1OCCC[C@@H](C)Cn1c(nc3ccc(N4CCC5(CC4)CCN(C4CC4)CC5)cc31)NC2=O , I see its IC50 listed as 701

The value of IC50 measured for the compound Cc1cc2cc(n1)-c1cnccc1OCCCCCn1c(nc3ccc(N4CCC5(CC4)CCN(C4COC4)CC5)cc31)NC2=O turned out to be 700

GET /value?item= Cc1cc2cc(n1)-c1cnccc1OCCCCCn1c(nc3cc(F)c(N4CCC5(CCN(CC6COC6)CC5)CC4)cc31)NC2=O &field=IC50 returns 772

Field IC50 (entry Cc1cc2cc(n1)-c1cnccc1OCCC[C@@H](C)Cn1c(nc3cc(F)c(N4CCC5(CCN(C)CC5)CC4)cc31)NC2=O ) reads 331

Attention now turns to another entry.
Just so you know, measured IC50 for Cc1cc2cc(n1)-c1cnccc1OCCC[C@@H](C)Cn1c(nc3cc(C)c(N4CCC5(CCN(C)CC5)CC4)cc31)NC2=O came out at 493
